- Test system: .221A2.1 peptide-loaded target cells and cells expressing endogenous antigen
- ASSAY_TEXT: Primary in vitro CTL induction with peptide-pulsed DC, CTL lytic activity by 51Cr release
- Type: cell-based, human
- EXPERIMENTAL_SETUP: immunogenicity, CTL recognition of the peptide, positive/tested
// A2 peptide lookup, one value per entry

These solved cases illustrate the format of a correct answer.
[[record]]
compound = "CC[C@H](C)[C@H](N)C(=O)N[C@@H](CC(C)C)C(=O)N[C@@H](CC(C)C)C(=O)N[C@@H](Cc1c[nH]c2ccccc12)C(=O)N[C@@H](CCC(N)=O)C(=O)N1CCC[C@H]1C(=O)N[C@H](C(=O)N1CCC[C@H]1C(=O)N[C@H](C(=O)O)C(C)C)[C@@H](C)CC [Peptide 1044.04]"
result = "5/5"

[[record]]
compound = "CSCC[C@H](N)C(=O)N[C@@H](CC(C)C)C(=O)N[C@@H](CC(C)C)C(=O)N[C@@H](CCCNC(=N)N)C(=O)N[C@@H](CC(C)C)C(=O)N[C@@H](CO)C(=O)N[C@@H](CCC(=O)O)C(=O)N1CCC[C@H]1C(=O)N[C@H](C(=O)O)C(C)C [Peptide 1389.10]"
result = "3/3"


// next entry
Exercise: Using known records, supply A2 peptide for CC[C@H](C)[C@H](NC(=O)[C@H](Cc1c[nH]c2ccccc12)NC(=O)[C@@H](NC(=O)[C@@H](NC(=O)[C@H](CO)NC(=O)[C@H](CC(C)C)NC(=O)[C@@H](NC(=O)[C@H](CC(C)C)NC(=O)[C@@H](N)Cc1ccccc1)[C@@H](C)O)C(C)C)[C@@H](C)O)C(=O)NCC(=O)N[C@H](C(=O)O)C(C)C [Peptide 1419.27]
Key: 3/3

Every entry's value here was drawn from patent US20040037843A1.
